# system_tested: T1, biotinylated Human Activin A (human, UniProt P03970 309-424 (pig entry), biotinylated (EZ-Link Sulfo-NHS-Biotinylation Kit))
# T1 sequence: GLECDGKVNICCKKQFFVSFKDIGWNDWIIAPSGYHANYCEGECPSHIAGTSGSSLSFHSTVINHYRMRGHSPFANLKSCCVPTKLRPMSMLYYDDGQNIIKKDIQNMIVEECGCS
# procedure_details: SPR (Biacore 8K), antigen captured, Fab analyte
readout_kind: koff (s⁻¹)
Numbers only, in s⁻¹.

// batch mode: one koff value per listed entry
1. Fab of anti-Activin A antibody Clone E (Fab, V domains shown, Fab format; only VH and VL are tied to the clone; also called Clone E Fab) VH: QVQLVQSGAEVKKPGASVKVSCKASGYTFHGYNMHWVRQAPGQGLEWMGSINPYSGYTIYAQKFQGRVTMTRDTSISTAYMELSRLRSDDTAVYYCARARDIAAAGLGAFDYWGQGTLVTVSS VL: EIVLTQSPGTLSLSPGERATLSCRASQSVRSSYLAWYQQKPGQAPRLLIYGASSRATGIPDRFSGSGSGTDFTLTISRLEPEDFAVYYCQQYVSYPRTFGGGTKVEIK
2. Fab of anti-Activin A antibody Clone G (Fab, V domains shown, Fab format; only VH and VL are tied to the clone; also called Clone G Fab) VH: QVQLVQSGAEVKKPGASVKVSCKASGYTFTSYYIHWVRQAPGQGLEWMGAIYAYSGDTNYAQKLQGRVTMTTDTSTSTAYMELRSLRSDDTAVYYCARARDIAAAGLGAFDYWGQGTLVTVSS VL: EIVLTQSPGTLSLSPGERATLSCRASQSVRSSYLAWYQQKPGQAPRLLIYGASSRATGIPDRFSGSGSGTDFTLTISRLEPEDFAVYYCQQYSNYPRTFGGGTKVEIK
3. Fab of anti-Activin A antibody Clone H (Fab, V domains shown, Fab format; only VH and VL are tied to the clone; also called Clone H Fab) VH: QVQLVQSGAEVKKPGASVKVSCKASGYTFTGYHIHWVRQAPGQGLEWMGHISAYSGTTNYAQKLQGRVTMTTDTSTSTAYMELRSLRSDDTAVYYCARARDIAAAGLGAFDYWGQGTLVTVSS VL: EIVLTQSPGTLSLSPGERATLSCRASQSVRSSYLAWYQQKPGQAPRLLIYGASSRATGIPDRFSGSGSGTDFTLTISRLEPEDFAVYYCQQYSNYPRTFGGGTKVEIK
4. Fab of anti-Activin A antibody Clone F (Fab, V domains shown, Fab format; only VH and VL are tied to the clone; also called Clone F Fab) VH: QVQLVQSGAEVKKPGASVKVSCKASGYTFTGYHIHWVRQVPGQGLEWMGVISAYSGDTNYAQKLQGRVTMTTDTSTSTAYMELRSLRSDDTAVYYCARARDIAALGLGAFDYWGQGTLVTVSS VL: EIVLTQSPATLSVSPGERATLSCRASQSVSSNLAWYQQKPGQAPRLLIYGASDRATGIPARFSGSGSGTEFTLTISSLQSEDFAVYYCIQYSNYPRTFGGGTKVEIK
5. Fab of anti-Activin A antibody Clone K (Fab, V domains shown, Fab format; only VH and VL are tied to the clone; also called Clone K Fab) VH: QVQLVQSGAEVKKPGSSVKVSCKASGGTSSSYAISWVRQAPGQGLEWMGYIIPAFGTANYAQKFQGRVTITADESTSTAYMELSSLRSEDTAVYYCARPVRTYPLGKYFYHWGQGTLVTVSS VL: EIVLTQSPATLSLSPGERATLSCRASQSVSSYLAWYQQKPGQAPRLLIYDASNRATGIPARFSGSGSGTDFTLTISSLEPEDFAVYYCQQDSIFPPYTFGGGTKVEIK

output:
[0.000174, 0.000124, 0.000371, "7.26e-05", 0.000119]

input: Output koff of Fab of anti-Activin A antibody Clone I (Fab, V domains shown, Fab format; only VH and VL are tied to the clone; also called Clone I Fab) VH: QVQLVQSGAEVKKPGSSVKVSCKASGGTFSNYAISWVRQAPGQGLEWMGYIIPFFGTANYAQKFQGRVTITADESTSTAYMELSSLRSEDTAVYYCARGGSGYSTSWGSSLYWGQGTLVTVSS VL: EIVLTQSPGTLSLSPGERATLSCRASQSVSSSYLAWYQQKPGQAPRLLIYGASYRATGIPDRFSGSGSGTDFTLTISRLEPEDFAVYYCLQSGVFPYTFGGGTKVEIK
output: 7.38e-05
